The following compounds were reported with pIC50 values on Proto-oncogene tyrosine-protein kinase Src (Homo sapiens, UniProt P12931) in different studies.
pIC50: −log10 of the molar value.

// worked examples, pIC50 included
COc1cc(OC)cc(C(=O)Nc2cnc3[nH]c(-c4ccccc4)cc3c2)c1: 6.52 to 8.30
O=C(c1c(F)ccc(NS(=O)(=O)c2ccc(-n3cccn3)cc2)c1F)c1c[nH]c2ncc(Cl)cc12: ≥ 5.00
C#Cc1cc(Nc2cc(Oc3ccc(NC(=O)Nc4cc(C(C)(C)C)cc(NS(C)(=O)=O)c4OC)c4ccccc34)ccn2)ccc1C(=O)NCCN1CCOCC1: 7.37

API: value(readout= pIC50, system= Proto-oncogene tyrosine-protein kinase Src (Homo sapiens, UniProt P12931), query= "CC(C)n1c(C#CC2CCNCC2)c(-c2ccc(Oc3ccccc3)cc2)c2c(N)ncnc21" )
≥ 8.00

API: value(readout= pIC50, system= Proto-oncogene tyrosine-protein kinase Src (Homo sapiens, UniProt P12931), query= "C=CC(=O)Nc1ccccc1Nc1nc(Nc2ccc(N3CCN(C)CC3)cc2)ncc1OCc1ccc(C)cc1" )
8.00 to 9.00

API: value(readout= pIC50, system= Proto-oncogene tyrosine-protein kinase Src (Homo sapiens, UniProt P12931), query= "Cc1c(Nc2ccnc3cc(-c4ccccc4)oc23)ccc2[nH]ccc12" )
> 6.52

API: value(readout= pIC50, system= Proto-oncogene tyrosine-protein kinase Src (Homo sapiens, UniProt P12931), query= "COc1cnc2[nH]cc(C(=O)c3c(F)ccc(NS(=O)(=O)CC(F)(F)F)c3F)c2c1" )
≥ 5.00
